Test system: LXFL 529 NSCLC
Test: NCI tumour cell line growth inhibition, 48 h
Form field: TGI (one value per entry).

{"compound": "O=C(/N=C/c1c(O)c2ccccc2oc1=O)Nc1ccccc1", "TGI": "> 100 µM"}
{"compound": "NC(CCCC(N)P(=O)(O)c1ccccc1)P(=O)(O)c1ccccc1 (stereo not drawn)", "TGI": "> 261 µM"}
{"compound": "CCCN(CCCC(NC(C)=O)C(=O)NCc1ccccc1)C(=O)N(CCCl)N=O (stereo not drawn)", "TGI": "34 µM"}

====

Test system: MDA-MB-435
Experiment: NCI tumour cell line growth inhibition, 48 h
TGI vs 30 µM: at or above is yes (1), below is no (0).

{"compound": "Nc1ccccc1C(=O)CC1OC(=O)c2ccccc21 (configuration not stated)", "class-assignment": "yes (1)"}
{"compound": "O=C(/C=C/c1ccc(O)c(O)c1)OCCCc1ccccc1", "class-assignment": "no (0)"}
{"compound": "CN(CCn1cnc2c1c(=O)n(C)c(=O)n2C)C1CCCCC1", "class-assignment": "yes (1)"}
{"compound": "COc1cc(-c2cc3ncccc3c3nc(N)c4cccnc4c23)cc(OC)c1OC", "class-assignment": "no (0)"}
{"compound": "Cc1cc(=O)oc2cc(OC(=O)N(C)C)c(Cl)cc12", "class-assignment": "yes (1)"}
{"compound": "Nc1ccc(C2=NN(c3ccccc3)C(c3ccc(Cl)cc3)C2)cc1 (configuration not stated)", "class-assignment": "no (0)"}
{"compound": "CCOC(=O)C1=CNC(C(=O)OCC)C1c1cccn1-c1ccc(Cl)cc1[N+](=O)[O-] (configuration not stated)", "class-assignment": "yes (1)"}
{"compound": "O=C(CC(c1ccccc1)c1c(O)c2ccccc2oc1=O)c1ccccc1 (configuration not stated)", "class-assignment": "yes (1)"}
{"compound": "CC1(C)N=C(C(N)=O)c2ncn(N)c2N1", "class-assignment": "yes (1)"}
{"compound": "COC(=O)c1c2c(c[n+]([O-])c1C)C(=O)C=CC2=O", "class-assignment": "no (0)"}
{"compound": "COc1ccc(-c2cc(=O)c3ccc(C)nc3[nH]2)cc1", "class-assignment": "yes (1)"}
{"compound": "CCOC(=O)N1CCN(c2nc(Nc3cc(C)[nH]n3)c3ccccc3n2)CC1", "class-assignment": "yes (1)"}
{"compound": "C[Si](C)(OCCS(=O)(=O)O)C1(Cc2cccc3ccccc23)S(=O)(=O)OCCOS1(=O)=O", "class-assignment": "yes (1)"}
{"compound": "CCCNNC(=O)/C=C/c1ccc(CNCCc2c(C)[nH]c3ccccc23)cc1", "class-assignment": "no (0)"}
{"compound": "O=CN1CCN(C(=O)c2ccc(Cl)cc2Cl)C1=S", "class-assignment": "yes (1)"}

====

Tested on: A498 renal
Experiment: NCI tumour cell line growth inhibition, 48 h
recorded-endpoint: TGI

{"molecule": "Cn1cc(C2=C(c3cn(CCCCN)c4ccccc34)C(=O)NC2=O)c2ccccc21", "recorded-endpoint": "TGI", "result": "> 25 µM"}
{"molecule": "Nc1ccccc1C(=O)CC1OC(=O)c2ccccc21 (stereo not drawn)", "recorded-endpoint": "TGI", "result": "> 100 µM"}
{"molecule": "Cc1ccc(N=N/C(=N\\NC(=O)c2ccc(C)cc2)c2ccc(N(CCC#N)CCC#N)cc2C)cc1", "recorded-endpoint": "TGI", "result": "> 100 µM"}
